system: male mice; assay: in vivo; settings: 3 g/kg oral, 7 days
Number of Dead Mice/Number of Mice Tested for assorted compounds
observationType: Number of Dead Mice/Number of Mice Tested

{"compoundString": "CC(C)Cc1ccc(Nc2ccccc2C(=O)O)c2ccccc12", "result": "2 /10"}
{"compoundString": "O=C(O)c1ccccc1Nc1c(Cl)cc(Br)c2ccccc12", "result": "0 / 5"}
{"compoundString": "CCCCc1ccc(Nc2ccccc2C(=O)O)c2ccccc12", "result": "5 /10"}
{"compoundString": "CCCCCCc1ccc2ccccc2c1Nc1ccccc1C(=O)O", "result": "0 /10"}
{"compoundString": "O=C(O)c1ccccc1Nc1cc(Cl)cc2ccccc12", "result": "4 / 5"}
{"compoundString": "O=C(O)c1ccccc1Nc1cc(F)cc2ccccc12", "result": "5 / 5"}
{"compoundString": "O=C(O)c1ccccc1Nc1ccc(Cl)c2ccccc12", "result": "0 / 5"}
{"compoundString": "O=C(O)c1ccccc1Nc1c(Cl)cc(Cl)c2ccccc12", "result": "0 / 5"}
